Provenance of the data: PubChem BioAssay (NCI)

assay: NCI Yeast Anticancer Drug Screen. Data for the sgs1 mgt1 strain (AID 161);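 note: 0% = growth of cultures given vehicle only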; details: S. cerevisiae sgs1 mgt1 strain, at 50.0 µM, stronger effect = higher value
The panel holds about 79,000 compounds, 15% with a hit somewhere; the sample as a whole holds those more often.
quantity: growth inhibition (%)
Return type: number; implicit unit %.

Looking up `CC/C(C)=N/OC(=O)Nc1ccccc1` , I see its growth inhibition listed as 64.7

* * *

assay: NCI Yeast Anticancer Drug Screen. Data for the bub3 strain (AID 167); details: S. cerevisiae bub3 mutant strain, at 50.0 µM (retest, dose inferred, filed as 5.0), stronger effect = higher value
This is part of a sample that, as a whole, favours compounds with a hit. Of some 79,000 tested, about 15% had one in any assay.
Think of 20% as a floor: if growth inhibition stands on it or above, it is Condition met; beneath it, Condition not met.

# count of solved cases: 2
CN/N=C(\C)C(CN1CCCCC1)C(C1=C(O)c2ccccc2OC1)c1ccccc1 (stereo unspecified)    Condition not met
Cc1cc(Cl)ccc1NC(=O)CC1SC(=NC(=O)c2ccccc2Cl)NC1=O (stereo unspecified)    Condition met

[in] Could you verify whether the entry COc1cccc2c1OC(c1ccc(Cl)cc1)C([N+](=O)[O-])=C2 (stereo unspecified) shows growth inhibition of no less than 20%?
[out] Condition met

[in] Could you verify whether the entry `CCN(CC)C(=S)N/N=C/c1cc(OC)ccc1O` shows growth inhibition of no less than 20%?
[out] Condition met

[in] Could you verify whether the entry `NC(=S)NNc1c([N+](=O)[O-])cnn(-c2ccccc2)c1=O` shows growth inhibition of no less than 20%?
[out] Condition met

[in] Could you verify whether the entry `CN(C)CC(CN(C)C)C(=O)c1ccc2c(c1)OCO2` shows growth inhibition of no less than 20%?
[out] Condition met

[in] Could you verify whether the entry `COc1ccc(/C=C/Cc2cc3c(cc2O)OCO3)cc1` shows growth inhibition of no less than 20%?
[out] Condition not met

* * *

assay: NCI Yeast Anticancer Drug Screen. Data for the mec2-1 strain (AID 157); details: S. cerevisiae mec2-1 strain, at 50.0 µM, stronger effect = higher value
The panel holds about 79,000 compounds, 15% with a hit somewhere; the sample as a whole holds those more often.
Documented growth inhibition across a set of molecules
Return type: number; implicit unit %.

O=C(O)C(=O)Cc1ccccc1[N+](=O)[O-]    4.9

Looking up OC(CBr)c1c(Br)ccc2ccccc12 (configuration not stated) , I see its growth inhibition listed as 5.75

Looking up `C=C(CN1CCCC1)C(=O)c1ccc(OC)cc1` , I see its growth inhibition listed as 73

Looking up `O=c1ccc([N+](=O)[O-])c[nH]1.[Ag]` , I see its growth inhibition listed as 99.3

Looking up CN(/N=C/C(O)C(O)C(O)CO)c1ccccc1 (configuration not stated) , I see its growth inhibition listed as 98.5

Looking up `Cc1cc(NS(=O)(=O)c2ccc(N)cc2)no1.[Ag]` , I see its growth inhibition listed as 99.7

Looking up `c1cc2c(c3c1CN(C1CCCCC1)CO3)OCN(C1CCCCC1)C2` , I see its growth inhibition listed as -29.6

* * *

assay: NCI Yeast Anticancer Drug Screen. Data for the rad50 strain (AID 155);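 note: 0% = growth of vehicle-only cultures of the same strain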; conditions: S. cerevisiae rad50 strain growth inhibition; at 50.0 µM (retest, dose inferred, filed as 5.0)
This is part of a sample that, as a whole, favours compounds with a hit. Of some 79,000 tested, about 15% had one in any assay. Calls of active or inactive are those of the source. Cut-off read from the data, not from the text of the source: active = growth inhibition above about 70%; inactive = the rest.
API: response.call in y = active, n = inactive

Cc1cccc2nc3nc(Cl)c(Cl)nc3n12    y
Cc1cc(Br)c2ccccc2c1N    n
CC1(C)CC(=O)C2=C(C1)OC1=C(C(=O)CC(C)(C)C1)C2CC(c1ccccc1)c1ccc(O)c(O)c1O (configuration not stated)    n
CC1(Cc2ccccc2)CCCC(C=O)C1=O.[Cu+2] (configuration not stated)    y
CCCCOCN(CC(CC)CCCC)CC(CC)CCCC (configuration not stated)    n

[in] I would be grateful if you could indicate the recorded call for `Cc1cc(Sc2ccccc2)c2c(C)ccc(C(C)C)cc1-2` .
[out] n

[in] I would be grateful if you could indicate the recorded call for O=C1OC(CC(=O)c2ccccc2Cl)C(Cl)=C1Cl (configuration not stated) .
[out] n
